measurement-target: Pantothenate synthetase (Mycobacterium tuberculosis (strain ATCC 25618 / H37Rv)) (UniProt P9WIL5)
Sequence (P9WIL5 whole entry, looked up): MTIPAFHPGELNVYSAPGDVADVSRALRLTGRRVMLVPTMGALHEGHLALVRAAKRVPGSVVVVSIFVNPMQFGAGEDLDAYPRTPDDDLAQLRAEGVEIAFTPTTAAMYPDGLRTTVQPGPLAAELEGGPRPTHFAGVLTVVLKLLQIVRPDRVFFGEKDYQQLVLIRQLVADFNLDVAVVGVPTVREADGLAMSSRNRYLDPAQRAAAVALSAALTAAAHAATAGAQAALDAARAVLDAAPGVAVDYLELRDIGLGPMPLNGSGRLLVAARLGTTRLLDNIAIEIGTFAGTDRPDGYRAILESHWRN
protocol-summary: Coupled enzyme confirmation of inhibitors against recombinant Mtb PanC (AID 375);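 note: 0% = full reaction with vehicle and 100% = no enzyme background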
assay-conditions: coupled enzyme assay; at 10 µM, hits give high values
Each item that follows carries a reported inhibition.
result-type: inhibition (%)

CC(COc1ccccc1)NC(C)C(O)c1ccc(O)cc1 (configuration not stated) ... 0
O=C1N2c3ccccc3CCc3cccc(c32)C1(O)C(F)(F)F (configuration not stated) ... 0
CCOC(=O)Cc1csc(NC(=O)CSc2nnc(C(C)C)n2CC)n1 ... 0
Cn1c(SCC(=O)Nc2ccc(F)cc2)nnc1-c1cccnc1 ... 0
CCOC(=O)Cn1c(=N)n(CCOc2cccc(C)c2)c2ccccc21 ... 0
O=c1c2nnn(Cc3ccc(Cl)cc3)c2ncn1Cc1ccc(F)cc1 ... 0
C#CC1(O)CC(C)N(C)C(C)C1 (configuration not stated) ... 6
CC(C)(C)SCCNC(=O)CSc1ccccc1 ... 7
O=C1C2ON(c3ccccc3)C(c3cccnc3)C2C(=O)N1c1ccccc1 (configuration not stated) ... 4
COc1ccccc1CC1(C)NC(=O)N(CC(=O)Nc2cc(C)on2)C1=O (configuration not stated) ... 1
O=C(CSC1=NC(=O)C(Cc2ccccc2)C(=O)N1)NC1CCCCC1 (configuration not stated) ... 0
CCOc1ccc(OCC)c2sc(C)nc12 ... 2

---

Each item that follows carries a reported inhibition.
measurement-target: Pantothenate synthetase (Mycobacterium tuberculosis (strain ATCC 25618 / H37Rv)) (UniProt P9WIL5)
protocol-summary: Coupled enzyme confirmation of inhibitors against recombinant Mtb PanC (AID 375);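 note: 0% = full reaction with vehicle and 100% = no enzyme background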
assay-conditions: coupled enzyme assay; at 10 µM, hits give high values
result-type: inhibition (%)

CCOc1ccc2nc(S(N)(=O)=O)sc2c1 ... 3
CCOC(=O)C1=C(Cn2cnc3ccccc32)NC(=O)NC1c1cc(C)ccc1C (centres undefined) ... 0
COc1ccccc1-c1nc(SCc2ccccn2)n[nH]1 ... 0
O=C(O)C1CC=CCC1C(=O)Nc1ccc(S(=O)(=O)N2CCCc3ccccc32)cc1 (centres undefined) ... 0
CC(C(=O)N1CC2(C)CC1CC(C)(C)C2)N1C(=O)c2ccccc2C1=O (centres undefined) ... 8
CCOc1nc(-c2ccncc2)nc2ccccc12 ... 0
C(=C\c1ccccc1)/CN1CCN(Cc2ccc3c(c2)OCCO3)CC1 ... 1
COCCn1nnnc1C(c1cccs1)N1CCN(c2cc(C)ccc2C)CC1 (centres undefined) ... 0
CCOc1ccc(C(CC(=O)O)NC(=O)c2ccco2)cc1OC (centres undefined) ... 2
CC(C)c1ccc(CNc2ccc(N3CCOCC3)cc2)cc1 ... 2
COc1ccccc1C(=O)Nc1ccc(N2CCN(Cc3ccccc3)CC2)cc1 ... 0
CCn1c2ccccc2c2cc(NC(=O)CSc3nnc(C4CC4)n3Cc3ccco3)ccc21 ... 1
O=C1CC(Cc2ccccc2)C(=O)N1CCc1ccc2c(c1)OCO2 (centres undefined) ... 3
COc1ccc(Br)cc1C1N2CC3(C)CN1CC(C)(C2)C3=O (centres undefined) ... 0
CCN(CCCNC(=O)COc1cc(=O)n(CC)c2ccccc12)c1ccccc1 ... 0
O=C(Cc1ccsc1-c1ccccc1)NO ... 0
Cc1cc(C)c(NC(=O)CSc2nnc(-c3ccncc3)n2Cc2ccco2)c(C)c1 ... 0
O=C(CCSc1nnc(-c2ccncc2)o1)Nc1ccccc1 ... 0
O=S(=O)(c1ccc2nc(Cc3cccc(C(F)(F)F)c3)[nH]c2c1)N1CCOCC1 ... 0
c1cncc(CNC2=NCCCCC2)c1 ... 1
CC(C)N1C(=O)C2C(C(=O)NC3CCCCC3)C3C=CC2(O3)C1C(=O)NC1CCCC1 (centres undefined) ... 0
COC(=O)CN(Cc1ccco1)S(=O)(=O)c1ccccc1 ... 1
COCCNc1oc(-c2ccc(C)cc2)nc1C#N ... 0
O=C(NCCCNC(=O)c1ccccn1)c1ccccn1 ... 12

---

measurement-target: Pantothenate synthetase (Mycobacterium tuberculosis (strain ATCC 25618 / H37Rv)) (UniProt P9WIL5)
protocol-summary: Coupled enzyme confirmation of inhibitors against recombinant Mtb PanC (AID 375);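 note: 0% = full reaction with vehicle and 100% = no enzyme background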
assay-conditions: coupled enzyme assay; at 10 µM, hits give high values
result-type: inhibition (%)

O=c1c2ccccc2sn1-c1ccc(S(=O)(=O)N2CCCCC2)cc1 ... 0
CCCCc1nccn1CCn1ccnc1CCCC ... 0
O=C(O)c1ccc2c3c(ncnc13)-c1ccccc1C2=O ... 1
Cn1c2ccccc2c2ncn(CCCN3CCOCC3)c(=O)c21 ... 0
O=C1CCCc2c1cc(C(=O)NCc1ccco1)c(=O)n2-c1ccc(Cl)cc1 ... 9
CCOc1ccc(NC(=O)c2ccc3c(c2)N(Cc2ccc(F)cc2)C(=O)CS3=O)cc1 (stereo unspecified) ... 10

---

Each item that follows carries a reported inhibition.
measurement-target: Pantothenate synthetase (Mycobacterium tuberculosis (strain ATCC 25618 / H37Rv)) (UniProt P9WIL5)
protocol-summary: Coupled enzyme confirmation of inhibitors against recombinant Mtb PanC (AID 375);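 note: 0% = full reaction with vehicle and 100% = no enzyme background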
assay-conditions: coupled enzyme assay; at 10 µM, hits give high values
result-type: inhibition (%)

COC(=O)c1ccc(COc2ccc(C3C4=C(CCCC4=O)Nc4onc(C)c43)cc2)cc1 (configuration not stated) ... 0
COc1ccc(S(=O)(=O)n2nc(OC(=O)c3ccc(C)cc3)cc2N)cc1 ... 5
Cn1c(=O)c(=O)n(C)c2cc(S(=O)(=O)N3CCN(c4cccc(C(F)(F)F)c4)CC3)ccc21 ... 9
Cc1[nH]n(C(N)=S)c(=O)c1C(c1ccccc1)C(C#N)C#N (configuration not stated) ... 0
CCOc1ccccc1N(CC(=O)N1CCOCC1)S(=O)(=O)c1ccccc1 ... 0
O=C(CN(Cc1ccc2c(c1)OCO2)C(=O)CNS(=O)(=O)c1ccccc1)NCc1ccco1 ... 0
CCOC(=O)N1CCC(N2CC34C=CC(O3)C(C(=O)O)C4C2=O)CC1 (configuration not stated) ... 0
CC1=C(C)[N+](=O)C2CCCCC2N1[O-] (configuration not stated) ... 3
COc1ccccc1NC(=O)N1CCCC1C(=O)NC1CCCCC1 (configuration not stated) ... 0
c1ccc(-c2cc(CSc3nc4ccccc4[nH]3)on2)cc1 ... 0
CC(=O)c1c(C)[nH]c(C(=O)NCc2cccs2)c1C ... 0
CCOC(=O)Cn1c(N2CCOCC2)nc2c1c(=O)[nH]c(=O)n2C ... 5
CN1CCN(S(=O)(=O)c2ccc(Sc3nnc(-c4cccs4)n3-c3ccccc3)nc2)CC1 ... 3
O=S(=O)(NCc1cn2ccsc2n1)c1ccc2c(c1)OCCO2 ... 0
O=C(C1COc2ccccc2O1)N1CCCC1 (configuration not stated) ... 0
Cc1c(Cl)cnc(NC(=O)COC(=O)C(NC(=O)c2ccco2)C(C)C)c1Cl (configuration not stated) ... 8
COCCOC(=O)C1=C(C)NC(=O)CC1c1cc2c(cc1Br)OCO2 (configuration not stated) ... 1
Cc1ccnc(NC(=O)C2CCCN(S(=O)(=O)c3cnc[nH]3)C2)c1 (configuration not stated) ... 0
CCOC(=O)C1CCCN(c2cc(=O)n(Cc3ccc(F)cc3)c(=O)[nH]2)C1 (configuration not stated) ... 2
Cc1oc2nc(SCCCC(=O)NCCCO)nc(N)c2c1C ... 2
COC(=O)CSc1nc2nc(C)cc(C)n2n1 ... 7
CC(=O)Nc1ccc(S(=O)(=O)N(C2=NCC(C)S2)c2ccccc2)cc1 (configuration not stated) ... 0

---

protocol-summary: S. cerevisiae growth inhibition in permissive medium (OD615), pilot counter-assay for S. cerevisiae lifespan shortening project, permissive growth control (AID 705)
assay-conditions: OD615, 24 h, at 10 µM, hits give high values
result-type: growth inhibition (%)

COc1ccc(N2C(=O)CC(N3CC=C(c4ccccc4)CC3)C2=O)cc1 (stereo not drawn) ... -17.8
O=C(c1ccc2c(c1)OCO2)N1CCC2(CC1)OCCO2 ... -5.96
O=C1c2ccccc2C(=O)N1Cc1nc2ccccc2c(=O)n1-c1ccc(Br)cn1 ... -8.78
O=C(CN1CCOCC1)c1ccc2cc[nH]c2c1 ... -10.7
Cn1cc(C(=O)c2ccccc2)c2ccccc21 ... -1.98
CCOc1ccccc1C1SCC(=O)Nc2c1c(=O)[nH]n2C(CC)CC (stereo not drawn) ... -3.42
Cc1ccc(CC2C(=O)N(C)C(=O)N(C)C2=O)s1 ... -2.9
CC1(C)CN=C(Nc2ccc(F)c(F)c2)S1 ... -7.04
COc1ccc(C2C(C(=O)N3CCC4(CC3)OCCO4)c3cc(OC)c(OC)cc3C(=O)N2C)cc1 (stereo not drawn) ... -15.2
C=Cn1ccnc1P(=S)(c1c(C)nn(-c2ccccc2)c1C)c1nccn1C=C ... 0.15
Cc1c(C(=O)N2CCC3(CC2)OCCO3)oc2ccc(S(=O)(=O)N3CCOCC3)cc12 ... -9.41
CCN(c1ccc(C(O)(C(=O)OC)C(F)(F)F)cc1)S(=O)(=O)c1ccccc1 (stereo not drawn) ... -4.31
COCCOC(=O)C1=C(N)OC(C)=C(C(=O)OC)C12C(=O)Nc1ccccc12 (stereo not drawn) ... -5.22
Cc1cc(OC(=O)c2ccco2)c2c3c(c(=O)oc2c1)CCC3 ... 2.81
CCOC(=O)c1c(C)c(P(=S)(N2CCOCC2)N2CCOCC2)n(C)c1C ... -22.4
CN1C(=O)C(Cc2cccc3ccccc23)C(=O)N(C)C1=O ... -20.9
O=c1c2ccccc2nc(-c2ccco2)n1-c1ccncc1 ... -1.4
c1cncc(C2CCCCN2Cc2ccc3c(c2)OCO3)c1 (stereo not drawn) ... -6.18
Cc1cc(C)n2c(Br)c(CN3CC4CC(C3)c3cccc(=O)n3C4)nc2n1 (stereo not drawn) ... -3.02
Cc1ccc2cccc(OC(=O)N(C)c3ccccc3)c2n1 ... -4.06
CCCCCCOc1ccc(CN2CCN(CCO)CC2)cc1 ... -16.7
C[C@H]1CCC[C@@H](O)CCC/C=C/c2cc(O)cc(O)c2C(=O)O1 ... -5.6
CC(CO)(CO)N=Cc1c(O)n(-c2cccc3ccccc23)c(=O)[nH]c1=O ... -9.27
